# Test system: HEK293 cells
# PROCEDURE_TEXT: Cytotoxicity, CellTiter-Glo cell viability assay
# Assay type: cell-based, human
# TEST_CONDITIONS: HEK293 cells, CellTiter-Glo; Table 3
Entries and their Cytotoxicity LD50 values follow.
ATTRIBUTE_MEASURED: Cytotoxicity LD50

{"COMPOUND": "C#Cc1ccc2c(c1)C(c1ccccc1F)=NC1(CC1)c1c(C(=O)O)ncn1-2", "ATTRIBUTE_MEASURED": "Cytotoxicity LD50", "MEASURED_RESULT": ">300 µM"}
{"COMPOUND": "CC1(C)N=C(c2ccccc2F)c2cc(Br)ccc2-n2cnc(C(=O)O)c21", "ATTRIBUTE_MEASURED": "Cytotoxicity LD50", "MEASURED_RESULT": ">300 µM"}
{"COMPOUND": "O=C(O)c1ncn2c1C1(CC1)N=C(c1ccccc1F)c1cc(Cl)ccc1-2", "ATTRIBUTE_MEASURED": "Cytotoxicity LD50", "MEASURED_RESULT": ">300 µM"}
{"COMPOUND": "O=C(O)c1ncn2c1C1(CCC1)N=C(c1ccccc1F)c1cc(Br)ccc1-2", "ATTRIBUTE_MEASURED": "Cytotoxicity LD50", "MEASURED_RESULT": ">300 µM"}
{"COMPOUND": "O=C(O)c1ncn2c1C1(CC1)N=C(c1ccccc1F)c1ccccc1-2", "ATTRIBUTE_MEASURED": "Cytotoxicity LD50", "MEASURED_RESULT": ">300 µM"}
{"COMPOUND": "O=C1Nc2ccc(Br)cc2C(c2ccccc2F)=NC12CC2", "ATTRIBUTE_MEASURED": "Cytotoxicity LD50", "MEASURED_RESULT": ">150 µM"}
{"COMPOUND": "O=C(O)c1ncn2c1C1(CC1)N=C(c1ccccc1F)c1cc(C3CC3)ccc1-2", "ATTRIBUTE_MEASURED": "Cytotoxicity LD50", "MEASURED_RESULT": ">300 µM"}
{"COMPOUND": "O=C(O)c1ncn2c1C1(CCCC1)N=C(c1ccccc1F)c1cc(Br)ccc1-2", "ATTRIBUTE_MEASURED": "Cytotoxicity LD50", "MEASURED_RESULT": ">300 µM"}
{"COMPOUND": "CC1(C)N=C(c2ccccc2F)c2cc(Br)ccc2NC1=O", "ATTRIBUTE_MEASURED": "Cytotoxicity LD50", "MEASURED_RESULT": ">150 µM"}
{"COMPOUND": "O=C(O)c1ncn2c1C1(CCCCC1)N=C(c1ccccc1F)c1cc(Br)ccc1-2", "ATTRIBUTE_MEASURED": "Cytotoxicity LD50", "MEASURED_RESULT": ">300 µM"}
{"COMPOUND": "CCC1N=C(c2ccccc2F)c2cc(Br)ccc2NC1=O (centres unmarked)", "ATTRIBUTE_MEASURED": "Cytotoxicity LD50", "MEASURED_RESULT": ">150 µM"}
{"COMPOUND": "C#Cc1ccc2c(c1)C(c1ccccc1F)=NC1(CC1)c1c(C(=O)OCC)ncn1-2", "ATTRIBUTE_MEASURED": "Cytotoxicity LD50", "MEASURED_RESULT": ">150 µM"}
{"COMPOUND": "CCOC(=O)c1ncn2c1C1(CCCC1)N=C(c1ccccc1F)c1cc(Br)ccc1-2", "ATTRIBUTE_MEASURED": "Cytotoxicity LD50", "MEASURED_RESULT": "96 ± 11 µM"}
{"COMPOUND": "CCOC(=O)c1ncn2c1C1(CCC1)N=C(c1ccccc1F)c1cc(Br)ccc1-2", "ATTRIBUTE_MEASURED": "Cytotoxicity LD50", "MEASURED_RESULT": "106 ± 9 µM"}

Origin of measurements: patent US20260125388A1
